Protein target, amino acids: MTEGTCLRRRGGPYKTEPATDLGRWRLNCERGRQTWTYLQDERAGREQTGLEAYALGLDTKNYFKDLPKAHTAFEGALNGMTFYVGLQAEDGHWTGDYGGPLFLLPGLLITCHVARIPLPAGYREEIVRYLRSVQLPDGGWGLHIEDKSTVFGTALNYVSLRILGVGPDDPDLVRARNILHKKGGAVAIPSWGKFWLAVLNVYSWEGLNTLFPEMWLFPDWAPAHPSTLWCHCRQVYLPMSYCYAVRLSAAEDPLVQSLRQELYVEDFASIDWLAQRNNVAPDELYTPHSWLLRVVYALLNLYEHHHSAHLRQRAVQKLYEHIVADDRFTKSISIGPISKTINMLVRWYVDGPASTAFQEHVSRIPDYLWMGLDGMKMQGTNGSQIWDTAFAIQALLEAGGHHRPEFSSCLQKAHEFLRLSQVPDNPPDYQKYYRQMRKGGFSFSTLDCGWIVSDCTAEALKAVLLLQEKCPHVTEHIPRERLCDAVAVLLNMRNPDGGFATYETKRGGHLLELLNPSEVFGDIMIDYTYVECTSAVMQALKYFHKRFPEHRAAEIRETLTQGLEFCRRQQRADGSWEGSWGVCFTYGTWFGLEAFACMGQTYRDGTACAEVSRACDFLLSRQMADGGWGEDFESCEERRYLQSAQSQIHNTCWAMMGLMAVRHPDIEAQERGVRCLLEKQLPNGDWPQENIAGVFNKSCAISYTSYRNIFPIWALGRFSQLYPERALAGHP
# reported IC50; entries follow
# unit: µM | format: bare number

These solved cases illustrate the format of a correct answer.
COc1ccc(-n2c(C)cc(C(=O)NCc3ccc(CN(C)C)cc3)c2C)cc1 : 35.4
CN(C)Cc1ccc(CNCc2cnn(-c3ccccc3)n2)cc1 : 1.41

Query string: What value of measured IC50 is listed for COc1ccc(-n2c(C)cc(CNC(=O)c3ccc(CN(C)C)cc3)c2C)cc1 ?
Result string: 58.8
